Hey, just so you know, these numbers are from the supplement of paper PMC9170038.

test system: MS2 coat protein; test: apparent KD of MS2 coat protein; higher = weaker reporter binding; conditions: Eterna round: R107; input ligand: arginine 13.2 mM
Measured apparent KD of MS2 coat protein values are reported for all entries that follow.

residues	apparent KD of MS2 coat protein (nM)
UCUUACUAUAGUGAUACCAGACGUACAUGAGGAUCACCCAUGUUACAUUCUUGGUUAAAAGUCCCUUGGCAGCACGAUUUGUUCG [JR_Nu_ExcTheophyB_Sub026]	9.88
UUUUUUUUGGGAAGGAGCGGGAACAUGUGGAUCUCCCAUGUACAUGAGGAUCACCCAUGUACCCAGGUAGGUCGCUCAUUUUUUU [Exclusion - Arginine B]	28.4
AAUUAUUACGGAAGGAGCGUCUUUCGGCUCAAACAUGAGGAUCACCCAUGUGAUUUUGAAUGACAGGUAGGUCGCCGAUAUUUGA [JR_AAArginiB_Sub030]	24.4

* * *

test system: MS2 coat protein; test: apparent KD of MS2 coat protein, switch ON state; designed switch direction (-1 OFF switch, 1 ON switch): -1; higher = weaker reporter binding; conditions: FMN input: 0 or 200 uM; Eterna round: R93 (includes R88 designs)
Measured apparent KD of MS2 coat protein values are reported for all entries that follow.

residues	assay-system	apparent KD of MS2 coat protein
GAAAAACAUGAGGAUCACCCAUGUCAGGAUAUACAAAAUAAAAUAAAAAUAAAAUAAAGUAGAAGGGACAAAAG [Mat - Same state - Mayanna Mod - D107]	MS2 coat protein	36.7 nM
AAGAAGCAAGGAUAUACAUGAGGAUCACCCAUGUAAAAGAAAGAGAAGGGAAAGAAAAGUAGAAGGUGCGAAAA [Ruby 71]	MS2 coat protein	20.2 nM
AAAGCGGCAGGAUAUACAGGAACAAAAGUAUGUGCAUCCGCACAUGAGGAUCACCCAUGUAGAAGGGCUAAUAA [Ontiti]	MS2 coat protein	167 nM
GGAAAGUAAGGAUAUGCGAACAAACAAACAAACAAAAGGGAACAUGAGGAUCACCCAUGUAGAAGGUGCAAACA [Exclusion 2 Three redone]	MS2 coat protein	46 nM
CUUAUGUGAGGAUAUGGUGUUGGCCACAGGGAAAAGAUCCUCCAGAAGGCACAUGAGGAUCACCCAUGUAGUGA [Jolly's Folly 29 - Jieux - Exclusion 4]	MS2 coat protein	69 nM
AAACGUAGAGGAUAUACAAAAAGAUUACGAAAGUAAUCGGGACAUGAGGAUCACCCAUGUAGAAGGCUACGAAA [Mod2 of Meechl 64% 2]	MS2 coat protein	36.7 nM
AAACAACAUGAGGAUCACCCAUGUCAGGAUAUGAACGAAAAUAAAUAAAAAUAAAAGUUCAGAAGGGACGAAAA [66%, Wbt, 16]	MS2 coat protein	31.6 nM
AAUAACUCAGGAUAUACUAAAGAAAUGAAAAGAAAUAAAGAACAUGAGGAUCACCCAUGUAGAAGGGAGAAUAA [Wazad]	MS2 coat protein	94.2 nM
AAAAAUGGAGGAUAUACAUGAGGAUCACCCAUGUGUGGGUAUACUGUGUCGGCGUCAGGUAGAAGGCCAAAAAA [Gilly Gone Silly 28 - Jieux - Exclusion 3]	MS2 coat protein	132 nM
AAAAAACAUGAGGAUCACCCAUGUGAGGAUAUGAUGCGAAUAAAGAAAGAAGAAAGCAUCAGAAGGCACACCUA [Disincluded 3 (MS2 Riboswitches)]	MS2 coat protein	26.3 nM
GGAAAACAUGAGGAUCACCCAUGUAAGGAUAUGCAAAGGAUAUAGAAGGAAAAAAAAAGCAGAAGGUACAAAGG [salish99-ex1-20]	MS2 coat protein	26.5 nM
AAGUACUCAGGAUAUACAUGAGGAUCACCCAUGUGAUAAAAGCGUAAAAAACGCACAUGUAGAAGGGAGUACAA [JL In thr Red Again 2]	MS2 coat protein	140 nM
AAGAAGUGAGGAUAUCGUGCUCGUCACAAAAGUGAUGAGUACGAGAAGGCACAUGAGGAUCACCCAUGUAAAGA [Opal 36]	MS2 coat protein	40.1 nM
